Assay: Diffusion cell experiments: delivery of 5-FU through hairless mouse skin
Format: in vitro ADME
Conditions: leached from hairless mouse skin in 24 hours subsequent to application of prodrug in vehicle for 48 hours
Description: The diffusion cell experiments were conducted as described by Sloan et al in J. Invest. ^b Flux in mg/cm^2 hour of 5FU from suspensions of prodrugs in ^c Amount of 5FU in mg leached from hairless mouse skin in 24 hours subsequent to application of prodrug in vehicle for 48 hours. ^d Flux in mg/cm^2 hour of theophylline from suspension in PG.
I'd appreciate it if you could supply Cs, amount of 5-FU in the skin values for the items below.
Be sure to follow the number with its unit.

Provide the reported Cs, amount of 5-FU in the skin of each entry below, same order.
1. CCOC(=O)n1cc(F)c(=O)[nH]c1=O
2. CCCC(=O)n1cc(F)c(=O)n(C(=O)CCC)c1=O
3. CCC(=O)n1cc(F)c(=O)[nH]c1=O
4. CCC(=O)n1cc(F)c(=O)n(C(=O)CC)c1=O
5. CC(=O)n1cc(F)c(=O)n(C(C)=O)c1=O
6. CCCCCC(=O)n1cc(F)c(=O)[nH]c1=O

**A:**
2.38 mg
1.54 mg
8.96 mg
0.51 mg
1.24 mg
1.42 mg

Here are 5 compounds. What values of Cs, amount of 5-FU in the skin were reported for them?
1. CCCCCCOC(=O)n1cc(F)c(=O)[nH]c1=O
2. CC(=O)n1cc(F)c(=O)[nH]c1=O
3. CC(=O)n1c(=O)[nH]cc(F)c1=O
4. O=c1[nH]cc(F)c(=O)[nH]1
5. CCCCCCCC(=O)n1cc(F)c(=O)[nH]c1=O

**A:**
["1.38 mg", "8.85 mg", "1.77 mg", "0.48 mg", "1.58 mg"]

* * *

Test: shake-flask, brief shaking, IPM phase analyzed immediately
Conditions: 23 ± 1 °C
Is log partition isopropyl myristate / pH 4.0 acetate buffer at least 2 concentration ratio? Then met. If not, not met.

A selection of reference data follows.
molecule | assigned category
CCCCC(=O)n1c(=O)[nH]cc(F)c1=O [Compound 16] | not met
CC(=O)n1cc(F)c(=O)n(C(C)=O)c1=O [Compound 17] | met
CCCCCC(=O)n1cc(F)c(=O)[nH]c1=O [Compound 5] | met
CCC(=O)n1c(=O)[nH]cc(F)c1=O [Compound 14] | not met
CCCCCCOC(=O)n1cc(F)c(=O)[nH]c1=O [Compound 11] | met

# input for lookup
**Q:** Threshold query (log partition isopropyl myristate / pH 4.0 acetate buffer >= 2 concentration ratio) on CCCC(=O)n1cc(F)c(=O)[nH]c1=O [Compound 3]
**A:** met

* * *

Test: Partition coefficient between IPM and pH 4.0 acetate buffer
Type: physicochemical
Conditions: 23 ± 1° C.
Classify: yes when K, partition coefficient between IPM and pH 4.0 acetate buffer is strictly less than 0.8; no when K, partition coefficient between IPM and pH 4.0 acetate buffer is not.

Worked examples follow.
compound | assigned category
CCC(=O)n1cc(F)c(=O)[nH]c1=O [Compound 2] | yes
CCCCCCOC(=O)n1cc(F)c(=O)[nH]c1=O [Compound 11] | no
COC(=O)n1cc(F)c(=O)[nH]c1=O [Compound 7] | yes
CC(=O)n1c(=O)[nH]cc(F)c1=O [Compound 13] | yes
CCCC(=O)n1c(=O)[nH]cc(F)c1=O [Compound 15] | no
CCCOC(=O)n1cc(F)c(=O)[nH]c1=O [Compound 9] | yes
CCCCCC(=O)n1cc(F)c(=O)[nH]c1=O [Compound 5] | no
CCOC(=O)n1cc(F)c(=O)[nH]c1=O [Compound 8] | yes
CCCCOC(=O)n1cc(F)c(=O)[nH]c1=O [Compound 10] | no

**Q:** Bench note: check whether CCCCC(=O)n1cc(F)c(=O)[nH]c1=O [Compound 4] shows K, partition coefficient between IPM and pH 4.0 acetate buffer below 0.8
**A:** no
